- tested_on: CBP (Homo sapiens (Human), UniProt Q92793)
- Sequence (Q92793 1085-1192): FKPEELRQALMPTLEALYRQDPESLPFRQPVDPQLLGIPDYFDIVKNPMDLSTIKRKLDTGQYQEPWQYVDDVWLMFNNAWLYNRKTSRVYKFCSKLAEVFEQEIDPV
- assay_name: HTRF biochemical assay for CBP activity (TR-FRET, bromodomain)
- Format: binding
- recorded_conditions: geometric mean, 10-point 3-fold dilution 33 μM to 1.7 nM, read-out: BROMO IC50 TRF TB CBP (μM gmean)
Measured IC50 accompanies every entry in the list below.

compound: COC(=O)N1CCc2ccc3c(nc(C4CCN(S(C)(=O)=O)CC4)n3[C@H](C)Cc3cccc(C(=O)O)c3)c2C1
tested_on: CBP (Homo sapiens (Human), UniProt Q92793)
IC50: 0.1 to 1 µM
--
compound: COC(=O)N1CCc2ccc3c(nc([C@@H]4CC[C@H](C(=O)O)C4)n3[C@H](C)Cc3ccccc3C)c2C1
tested_on: CBP (Homo sapiens (Human), UniProt Q92793)
IC50: 0.1 to 1 µM
--
compound: COC(=O)N1CCc2ccc3c(nc(N4CCC(C(=O)O)CC4)n3[C@@H](C)Cc3ccccc3Cl)c2C1 (single isomer, unassigned)
tested_on: CBP (Homo sapiens (Human), UniProt Q92793)
IC50: 0.001 to 0.01 µM
--
compound: COC(=O)N1CCc2ccc3c(nc([C@H]4CC[C@H](C(=O)O)CC4)n3[C@@H](C)C[C@@H]3CCCCO3)c2C1
tested_on: CBP (Homo sapiens (Human), UniProt Q92793)
IC50: 0.01 to 0.1 µM
--
compound: COC(=O)N1CCc2ccc3c(nc([C@H]4CC[C@@H](C(=O)O)C4)n3[C@@H](C)Cc3ccccc3C)c2C1
tested_on: CBP (Homo sapiens (Human), UniProt Q92793)
IC50: 0.01 to 0.1 µM

Recorded IC50 (compound COC(=O)N1CCc2ccc3c(nc(C4CCCCC4)n3C[C@H](C(=O)O)c3ccc(F)c(OC)c3)c2C1 ): 0.001 to 0.01 µM

The compound COC(=O)N1CCc2ccc3c(nc([C@@H]4CCC[C@@H](C(=O)O)C4)n3Cc3cccc(OC)n3)c2C1 showed IC50 equal to 0.01 to 0.1 µM

Entry COC(=O)N1CCc2ccc3c(nc(C4CCCCC4)n3C[C@H](CC(=O)O)c3cc(F)cc(F)c3)c2C1 ; IC50 = 0.001 to 0.01 µM

Consider COC(=O)N1CCc2ccc3c(nc([C@H]4CC[C@@](C)(C(=O)O)CC4)n3[C@@H](C)Cn3cc(Cl)cn3)c2C1 . Its measured IC50 is 0.001 to 0.01 µM

Measured IC50 of COC(=O)N1CCc2ccc3c(nc(C4CCCCC4)n3[C@H](C)C[C@@H]3CCCC[C@@H]3C(=O)O)c2C1 : 0.001 to 0.01 µM

response.value for COC(=O)N1CCc2ccc3c(nc(C4CCCCC4)n3[C@H](C)C[C@H]3CC[C@H](C(=O)O)CC3)c2C1 (field: IC50) = 0.01 to 0.1 µM

Note to self: IC50 recorded for COC(=O)N1CCc2cc(C#N)c3c(nc([C@H]4CC[C@H](C(=O)O)CC4)n3CCc3ccccc3)c2C1 was 0.001 to 0.01 µM

The compound listed as COC(=O)N1CCc2c(Cl)cc3c(nc(C4CCCCC4)n3C[C@H](C(=O)O)c3ccccc3)c2C1 has a reported IC50 of 0.01 to 0.1 µM

The recorded IC50 for entry COC(=O)N1CCc2ccc3c(nc(N4CCNCC4)n3[C@@H](C)Cc3ccccc3)c2C1 equals 0.01 to 0.1 µM

---

IC50 listing for selected compounds.
- tested_on: CBP (Homo sapiens (Human), UniProt Q92793)
- assay_name: HTRF biochemical assay for CBP activity (TR-FRET, bromodomain)
- Format: binding
- recorded_conditions: geometric mean, 10-point 3-fold dilution 33 μM to 1.7 nM, read-out: BROMO IC50 TRF TB CBP (μM gmean)

For orientation, consider the following solved cases.
mol_smiles: COC(=O)N1CCc2ccc3c(nc(N4CCC[C@H](C(=O)O)C4)n3C[C@H](C)c3ccccc3)c2C1
tested_on: CBP (Homo sapiens (Human), UniProt Q92793)
IC50: 0.1 to 1 µM

mol_smiles: COC(=O)N1CCc2ccc3c(nc(C4CCCCC4)n3CCc3ccccc3)c2C1
tested_on: CBP (Homo sapiens (Human), UniProt Q92793)
IC50: 0.001 to 0.01 µM

mol_smiles: COC(=O)N1CCc2ccc3c(nc(N4CCC(C(=O)CO)CC4)n3[C@H](C)Cc3ccccc3)c2C1
tested_on: CBP (Homo sapiens (Human), UniProt Q92793)
IC50: 0.1 to 1 µM

mol_smiles: COC(=O)N1CCc2ccc3c(nc(-c4cccc(C(C)(C)C(=O)O)c4)n3[C@H](C)Cn3cc(Cl)cn3)c2C1
tested_on: CBP (Homo sapiens (Human), UniProt Q92793)
IC50: 0.1 to 1 µM

mol_smiles: COC(=O)N1CCc2ccc3c(nc(C4CCN(C(C)=O)CC4)n3[C@H](C)Cc3cccnc3)c2C1
tested_on: CBP (Homo sapiens (Human), UniProt Q92793)
IC50: 0.1 to 1 µM

Field IC50 (entry COC(=O)N1CCc2ccc3c(nc([C@H]4CC[C@H](C(=O)O)CC4)n3[C@@H](C)Cc3cnccn3)c2C1 ) reads 0.01 to 0.1 µM

For record COC(=O)N1CCc2ccc3c(nc([C@H]4CC[C@@](C)(C(=O)O)CC4)n3[C@@H](CO)Cc3ccccc3)c2C1 the listed IC50 is 0.1 to 1 µM

---

Property: IC50; scope: individual compounds
- tested_on: CBP (Homo sapiens (Human))
- assay_name: HTRF biochemical assay for CBP activity (TR-FRET, bromodomain)
- Assay type: binding
- recorded_conditions: geometric mean, 10-point 3-fold dilution 33 μM to 1.7 nM, read-out: BROMO IC50 TRF TB CBP (μM gmean)

Worked set:
compound: COC(=O)N1CCc2ccc3c(nc(C4CCN(C(C)=O)CC4)n3[C@@H](C)Cc3cccnc3)c2C1
parameter: IC50
test_value: 0.01 to 0.1 µM

compound: COC(=O)N1CCc2ccc3c(nc([C@H]4CCC[C@H](C(=O)O)C4)n3[C@@H](C)Cc3ccccc3)c2C1
parameter: IC50
test_value: 0.01 to 0.1 µM

compound: COC(=O)N1CCc2ccc3c(nc([C@H]4CC[C@H](C(=O)O)CC4)n3[C@@H](C)C[C@H]3CCCOC3)c2C1
parameter: IC50
test_value: 0.1 to 1 µM

Form: compound = COC(=O)N1CCc2c(C#N)cc3c(nc([C@H]4CC[C@H](C(=O)O)CC4)n3[C@H](C)Cc3ccccc3)c2C1 ; IC50 = 0.01 to 0.1 µM

Notebook: COC(=O)N1CCc2ccc3c(nc(C4CCCCC4)n3C[C@@H](C(=O)O)c3cc(F)ccc3OC)c2C1 [Compound 240] , IC50 read as 0.01 to 0.1 µM

IC50 recorded for this compound, COC(=O)N1CCc2ccc3c(nc([C@H]4CCC[C@H](C(=O)O)C4)n3[C@H](C)Cc3ccccc3C)c2C1 (single isomer, unassigned) , is 0.001 to 0.01 µM

Noted for COC(=O)N1CCc2ccc3c(nc([C@H]4CC[C@H](C(=O)O)CC4)n3CCn3cc(Cl)cn3)c2C1 : its IC50 reads 0.01 to 0.1 µM

---

Quick list: IC50 per entry.
- tested_on: CBP (Homo sapiens (Human))
- assay_name: HTRF biochemical assay for CBP activity (TR-FRET, bromodomain)
- Format: binding
- recorded_conditions: geometric mean, 10-point 3-fold dilution 33 μM to 1.7 nM, read-out: BROMO IC50 TRF TB CBP (μM gmean)

Consider the worked cases shown below.
compound: COC(=O)N1CCc2ccc3c(nc(-c4ccc(C(=O)O)c(F)c4)n3[C@H](C)Cc3ccccc3)c2C1 [Compound 280]
test_value: 0.01 to 0.1 µM
--
compound: COC(=O)N1CCc2ccc3c(nc(-c4cccc(CC(=O)O)c4)n3[C@H](C)Cc3cc(F)cc(F)c3)c2C1 [Compound 322]
test_value: 0.1 to 1 µM
--
compound: COC(=O)N1CCc2ccc3c(nc(C4CCCCC4)n3[C@H](C)C[C@H]3CCCC[C@H]3C(=O)O)c2C1 [Compound 239]
test_value: 0.01 to 0.1 µM
--
compound: COC(=O)N1CCc2ccc3c(nc([C@@H]4CCC[C@@H](C(=O)O)C4)n3[C@@H](C)Cc3ccccc3C)c2C1 (single isomer, unassigned) [Compound 17]
test_value: 0.001 to 0.01 µM

Entry COC(=O)N1CCc2ccc3c(nc(C4CCNCC4)n3CCc3ccccc3)c2C1 [Compound 345] ; IC50 = 0.1 to 1 µM

IC50 measured on COC(=O)N1CCc2ccc3c(nc(N4CCC[C@@H](C(=O)O)C4)n3[C@@H](C)Cc3ccccc3)c2C1 [Compound 82] = 0.001 to 0.01 µM

Record COC(=O)N1CCc2ccc3c(nc(-c4ccc(C(C)(C)C(=O)O)cc4)n3[C@@H](C)Cn3cc(Cl)cn3)c2C1 [Compound 258] . Reported IC50: 0.01 to 0.1 µM
